Below: a set of entries, each annotated with reported T/C.
System: P388 leukemia ip, CD2F1 mice, survival T/C
Assay: NCI In Vivo Anticancer Drug Screen. Data for tumor model P388 Leukemia (intraperitoneal) in CD2F1 (CDF1) mice
Conditions: endpoint: median survival time; dose: 12.5 mg/kg/injection; schedule: Q01DX009 (ip); vehicle: other; higher = longer survival
Inconclusive results and toxic doses are left out.

In the examples that follow, each entry is paired with its recorded T/C.
Data request: # query: T/C of entry Nc1nc(N)nc(NCCSSCCNc2nc(N)nc(N)n2)n1
Data returned: 97 % of control

Data request: Dear colleague, I am looking for the recorded T/C of the following compound: CCOC(=O)N1CCc2cc(OC)c(OC)cc2/C1=C/c1cc(OC)c(OC)cc1Br
Data returned: 94 % of control

Data request: So what's the measured T/C for this one? CC(=O)Oc1ccc(N=Cc2cc3c(cc2[N+](=O)[O-])OCO3)cc1
Data returned: 113 % of control

Data request: // T/C lookup, key: COc1cccc2c1C(=O)c1c(O)c3c(c(O)c1C2=O)CC(O)(/C(C)=N/NC(=S)c1ccccc1)CC3OC1CC(N)C(O)C(C)O1 (stereo unspecified)
Data returned: 103 % of control

Data request: Recorded T/C of CCOC(=O)/C=C/C(=O)NNS(=O)(=O)CCC(NC(=O)OCc1ccccc1)C(=O)OCc1ccccc1 (stereo unspecified) , please.
Data returned: 92 % of control

Consider the additional compound presented here.
Data request: Quick check: T/C of CCOC/C(=N\NS(=O)(=O)c1ccc(C)cc1)C1(O)Cc2c(O)c3c(c(O)c2C(O)C1)C(=O)c1c(OC)cccc1C3=O (stereo unspecified) ?
Data returned: 107 % of control

----------
Quick reference: T/C of the listed items.
Tested on: P388 leukemia ip, CD2F1 mice, survival T/C
Assay: NCI In Vivo Anticancer Drug Screen. Data for tumor model P388 Leukemia (intraperitoneal) in CD2F1 (CDF1) mice
Details: endpoint: median survival time; dose: 12.5 mg/kg/injection; schedule: Q01DX009 (ip); vehicle: saline; higher = longer survival
Toxic doses and inconclusive results are not listed.

Reference set (5 entries):
Data request: Entry N#CN=CN1CC2CCC(CC2)C1 , system P388 leukemia ip, CD2F1 mice, survival T/C: what T/C was measured?
Data returned: 92 % of control

Data request: What value of T/C on P388 leukemia ip, CD2F1 mice, survival T/C does CCCCCCCCCCCCCCCCN1C(=O)/C(=C\c2ccc(O)cc2)SC1=Nc1ccccc1 have?
Data returned: 90 % of control

Data request: Please provide the recorded T/C for C1=CCC23COCC2(C1)CSC3 (configuration not stated) , tested on P388 leukemia ip, CD2F1 mice, survival T/C.
Data returned: 96 % of control

Data request: Give the reported T/C for COc1cc(=O)cc2n(-c3cc(OC)c(O)c(OC)c3)c3ccccc3nc1-2 (system: P388 leukemia ip, CD2F1 mice, survival T/C).
Data returned: 100 % of control

Data request: Notebook: pull reported T/C for P388 leukemia ip, CD2F1 mice, survival T/C, entry CCOC(=O)OC(C#N)(c1ccc([N+](=O)[O-])cc1)c1nccc2ccccc12 (configuration not stated)
Data returned: 93 % of control

With those in mind, consider the next molecule.
Data request: What T/C appears in the records for this molecule with P388 leukemia ip, CD2F1 mice, survival T/C? O=[N+]([O-])c1nccn1C1OC(CO)C(O)C1O (configuration not stated)
Data returned: 99 % of control

----------
List of T/C values.
Tested on: P388 leukemia ip, CD2F1 mice, survival T/C
Experiment: NCI In Vivo Anticancer Drug Screen. Data for tumor model P388 Leukemia (intraperitoneal) in CD2F1 (CDF1) mice
Conditions: endpoint: median survival time; dose: 50.0 mg/kg/injection; schedule: Q01DX005 (ip); vehicle: saline; higher = longer survival
Inconclusive results and toxic doses are left out.

Answered examples (4):
Data request: // lookup T/C for Nc1cc2[nH]ccc2c(=O)[nH]1
Data returned: 108 % of control

Data request: # input compound: CC1=N/C(=C\c2ccccc2Br)C(=O)O1 ; wanted: its T/C
Data returned: 114 % of control

Data request: # query: T/C of entry CC(=O)C(N)=O
Data returned: 98 % of control

Data request: Any idea what T/C was measured for NNC(=O)C(N)Cc1ccc(O)cc1 (stereo not given) ?
Data returned: 100 % of control

Others:
Data request: Quick one: T/C of CC(=O)O[C@@H]1CCC2CCC1N2C (stereo not given in full) ?
Data returned: 97 % of control

Data request: T/C for CCN(CC)Cc1cc(Nc2nc(/C=C/c3ccc(Cl)cc3)nc(Cl)c2-c2ccc(Cl)cc2)ccc1O ?
Data returned: 111 % of control

Data request: Using the record for COc1ccc(C=C(C(=O)CCN(C)C)C(=O)CCN(C)C)cc1 , report its T/C.
Data returned: 105 % of control

Data request: What measured T/C goes with O=C(O)c1nnn(-c2ccccc2)n1 ?
Data returned: 101 % of control

Data request: May I ask what T/C has been recorded for CN(C)C1C(=O)C(C(=O)NCNC(CO)(CO)CO)=C(O)C2(O)C(=O)C3=C(O)c4c(O)cccc4C(C)(O)C3CC12 (stereo not given) ?
Data returned: 92 % of control

Data request: Given the compound O=S(O)O , what is its reported T/C?
Data returned: 108 % of control

Data request: Request the reported T/C associated with CN(C)CCC(C#N)(CCN(C)C)c1ccccc1
Data returned: 105 % of control

Data request: T/C lookup needed for C[n+]1ccc(C[n+]2ccccc2)c2ccccc21 , thanks.
Data returned: 104 % of control

----------
Tested on: P388 leukemia ip, CD2F1 mice, survival T/C
Test: NCI In Vivo Anticancer Drug Screen. Data for tumor model P388 Leukemia (intraperitoneal) in CD2F1 (CDF1) mice
Settings: endpoint: median survival time; dose: 15.0 mg/kg/injection; schedule: Q01DX005 (ip); vehicle: saline with Tween-80; higher = longer survival
Inconclusive results and toxic doses are left out.
Recorded Metric: T/C

Check out these entries, answers already filled in.
Data request: Need T/C of COc1cc(OC)c2cc(-n3nnc4cc([N+](=O)[O-])ccc43)c(=O)oc2c1 , thanks.
Data returned: 95 % of control

Data request: What value of T/C has been recorded for this entry: CC1(C)CC(=O)C(=[N+]=[N-])C(=O)C1
Data returned: 105 % of control

Further cases:
Data request: Could you share which T/C value was measured for CCOP(=O)(OCC)c1nc(Cl)nc(Cl)c1SC(F)(F)F ?
Data returned: 100 % of control

Data request: Fill in: T/C of CNC(=O)OCc1c(COC(=O)NC)c(-c2ccsc2)n2c1CCC2 is ___
Data returned: 118 % of control

----------
Tested on: P388 leukemia ip, CD2F1 mice, survival T/C
Assay: NCI In Vivo Anticancer Drug Screen. Data for tumor model P388 Leukemia (intraperitoneal) in CD2F1 (CDF1) mice
Conditions: endpoint: median survival time; dose: 3.13 mg/kg/injection; schedule: Q01DX009 (ip); vehicle: other; higher = longer survival
Inconclusive results and toxic doses are left out.
Recorded Metric: T/C

Some compounds with recorded T/C:
Data request: Which value of T/C has been reported for COc1cccc2c1C(=O)c1c(O)c3c(c(O)c1C2=O)CC(O)(/C(C)=N/NC(=S)c1ccccc1)CC3OC1CC(N)C(O)C(C)O1 (centres undefined) in the records?
Data returned: 88 % of control

Data request: Any idea what its T/C is? The compound is COc1ccc2ccc(/C=C/[N+](=O)[O-])cc2c1OC
Data returned: 109 % of control

Data request: I'd like to know its T/C. The compound in question is CCCCCCCCCCCCSC1=CC(=O)C(OC)=C(OC)C1=O
Data returned: 102 % of control

Then there is this compound:
Data request: Value lookup for T/C; key = CCOC/C(=N\NS(=O)(=O)c1ccc(C)cc1)C1(O)Cc2c(O)c3c(c(O)c2C(O)C1)C(=O)c1c(OC)cccc1C3=O (centres undefined)
Data returned: 100 % of control

----------
Measured T/C values are reported for all entries that follow.
System: P388 leukemia ip, CD2F1 mice, survival T/C
Assay: NCI In Vivo Anticancer Drug Screen. Data for tumor model P388 Leukemia (intraperitoneal) in CD2F1 (CDF1) mice
Settings: endpoint: median survival time; dose: 200.0 mg/kg/injection; schedule: Q04DX003 (ip); vehicle: saline with Tween-80; higher = longer survival
Inconclusive results and toxic doses are left out.

Previously resolved entries follow.
Data request: What reported T/C corresponds to O=C1OC(=O)C(c2ccccc2)(c2ccccc2)C1c1ccccc1 (stereo not drawn) on P388 leukemia ip, CD2F1 mice, survival T/C?
Data returned: 119 % of control

Data request: Report T/C for CCCCCCC(O)C(CCCCCC)[Se]C (stereo not drawn) tested on P388 leukemia ip, CD2F1 mice, survival T/C.
Data returned: 100 % of control

Data request: Value wanted: T/C (P388 leukemia ip, CD2F1 mice, survival T/C) of entry COc1ccc(/C=C/C(=O)c2ccc(OC)c(OC)c2)cc1OC
Data returned: 95 % of control

Others:
Data request: Fill in the recorded T/C for this molecule, with P388 leukemia ip, CD2F1 mice, survival T/C as test system: N#CCCN/N=C\c1ccc2c(c1)OCO2
Data returned: 96 % of control
